I'd appreciate it if you could supply log10 of cAMP Rel EC50 (1% HSA) values for the items below.
# TGT: T1, human GIP receptor (human) (UniProt P48546)
# T1 sequence (looked up): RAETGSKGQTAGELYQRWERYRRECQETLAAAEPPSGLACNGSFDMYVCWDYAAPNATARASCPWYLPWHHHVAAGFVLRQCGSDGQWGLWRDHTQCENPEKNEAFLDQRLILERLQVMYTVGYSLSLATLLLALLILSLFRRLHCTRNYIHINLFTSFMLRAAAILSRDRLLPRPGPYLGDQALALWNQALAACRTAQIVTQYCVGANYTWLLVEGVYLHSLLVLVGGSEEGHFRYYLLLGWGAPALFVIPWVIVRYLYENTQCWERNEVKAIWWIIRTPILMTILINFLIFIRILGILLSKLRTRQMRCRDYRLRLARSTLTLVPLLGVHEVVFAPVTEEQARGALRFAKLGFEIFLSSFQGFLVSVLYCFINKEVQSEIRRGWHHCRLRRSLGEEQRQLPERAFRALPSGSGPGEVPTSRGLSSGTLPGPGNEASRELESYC
# TEST PROTOCOL: cell-based or functional assay
Starred links: 1 amine or outer side, 2 acyl side, 3 side chain; linkers in the order of their positions; H or OH if unused. Non-standard residues stand in square brackets, D forms with d. Groups on a side chain read outwards from the residue. No end group written: not given here. *: point of attachment. C20 diacid = O=C(O)CCCCCCCCCCCCCCCCCCC(=O)*; C18 diacid = O=C(O)CCCCCCCCCCCCCCCCC(=O)*; αMePhe(2-F) = C[C@](N)(Cc1ccccc1F)C(=O)O; γGlu = O=C(O)[C@H](CCC(=O)[*:2])N[*:1]; αMe4Pal = C[C@](N)(Cc1ccncc1)C(=O)O; 4Pal = N[C@@H](Cc1ccncc1)C(=O)O; αMeL = CC(C)C[C@](C)(N)C(=O)O; Orn = NCCC[C@H](N)C(=O)O; Dab = NCC[C@H](N)C(=O)O; AEEA = NCCOCCOCC(=O)O; Aib = CC(C)(N)C(=O)O
Answers are given as log10 of cAMP Rel EC50 (1% HSA) in nM.

Past entries and their recorded results:
{"columns": ["BINDER", "METRIC", "VAL"],
 "data": [
  ["YXQGTFTSDXSXXLDXKAQXAFIEYLIAGGPSSGAPPPSGSEE (Lys acylated γGlu-C18 diacid; non-natural residues; C-amide; synthetic construct; SITE 2: note = 2-Aminoisobutyric Acid; SITE 10: note = 3-(4-Pyridyl)-L-alanine; SITE 12: note = L-ornithine; SITE 13: note = alpha-methyl-leucine; SITE 16: note = L-ornithine; SITE 17: note = Lysine is chemically modified through conjugation of the epsilon-amino group of the Lys) [Example 1063]", "log10 of cAMP Rel EC50 (1% HSA)", 1.42],
  ["YXQGTFTSDXSQXLDKKAQXAFIEXLLEGGPSSGAPPPSGS (non-natural residues; lipidated Lys; C-terminal amide; synthetic construct; SITE 2: note = 2-Aminoisobutyric Acid; SITE 10: note = 3-(4-Pyridyl)-L-alanine; SITE 13: note = alpha-methyl-leucine; SITE 17: note = Lysine is chemically modified through conjugation of the epsilon-amino group of the Lysine side chain with (2-[2-(2-Amino-ethoxy)-ethoxy]-acetyl)) [Example 910]", "log10 of cAMP Rel EC50 (1% HSA)", 1.41],
  ["YXQGTFTSDFSQXLDKKAQXAFIEXLIEXGPSSGAPPPSGS (non-natural residues; acylated Lys C18 diacid; C-term amide; synthetic construct; SITE 2: note = 2-Aminoisobutyric Acid; SITE 13: note = alpha-methyl-leucine; SITE 17: note = Lysine is chemically modified through conjugation of the epsilon-amino group of the Lysine side chain with (2-[2-(2-Amino-ethoxy)-ethoxy]-acetyl)-(gamma-Glu)-CO-(CH2) 16-CO2H; SITE 20: n) [Example 913]", "log10 of cAMP Rel EC50 (1% HSA)", 0.75],
  ["Y[Aib]QGT[αMePhe(2-F)]TSDYSKLLDKIAQKAFIEYLIEGGPSSGEPPPSEG-NH2 (not fully specified (residue 20)) [Example 330]", "log10 of cAMP Rel EC50 (1% HSA)", 0.87]
]}

Take each entry in turn and give its log10 of cAMP Rel EC50 (1% HSA).
1. Y[Aib]QGTFTSDYSI[αMeL]LDKIAAK([AEEA-AEEA-γGlu-C20 diacid])QFVEWLLA[Aib]GPSSGEPPPSEG-NH2 [Example 324]
2. Y[Aib]QGTFTSDYSI[αMeL]LDKQAAK([AEEA-AEEA-γGlu-C20 diacid])QFVEWLIA[Aib]GPSSGEPPPGEG-NH2 [Example 333]
3. YXQGTFTSDXSKXLDKKAQXAFIEYLIEXGPSSGAPPPSGS (non-natural residues; (γGlu)2-C18 diacid on Lys; C-terminal amide; synthetic construct; SITE 2: note = 2-Aminoisobutyric Acid; SITE 10: note = 3-(4-Pyridyl)-L-alanine; SITE 13: note = alpha-methyl-leucine; SITE 17: note = Lysine is chemically modified through conjugation of the epsilon-amino group of the Lysine side chain with (gamma-Glu)2-CO-(CH2)16-CO2H; SITE 20:) [Example 907]
4. Y[Aib]QGTFTSD[4Pal]S[Dab][αMeL]LD[Orn]K([γGlu-γGlu-C18 diacid])AQ[αMe4Pal]AFIE[αMe4Pal]LLAGGPSSGAPPPEGSEE-NH2 [Example 1055]
5. Y[Aib]QGT[αMePhe(2-F)]TSDYSKLLDKIAQKAFIQYLIEGGPSSGEPPPSEG-NH2 (not fully specified (residue 20)) [Example 338]

Result ::
1.32
1.56
0.95
1.90
1.04

Query :: Form field: reported log10 of cAMP Rel EC50 (1% HSA) of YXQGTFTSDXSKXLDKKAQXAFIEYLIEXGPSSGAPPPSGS (synthetic construct; SITE 2: note = 2-Aminoisobutyric Acid; SITE 10: note = 3-(4-Pyridyl)-L-alanine; SITE 13: note = alpha-methyl-leucine; SITE 17: note = Lysine is chemically modified through conjugation of the epsilon-amino group of the Lysine side chain with (2-[2-(2-Amino-ethoxy)-ethoxy]-acetyl)) [Example 801]
Result :: 1.26

FYI, the data here is from patent US20240270821A1.
